Tested on: K-562 leukemia
test-summary: NCI-60 one-dose screen, 48 h (100 = growth as untreated, 0 = no growth, -100 = all killed)
condition-description: 10 µM unless noted
Compounds without any hit were thinned out: in the full panel of roughly 83,000, 20% have a hit. Calls of active or inactive are those of the source. The calls were made as follows: active = growth percent below 10; inactive = the rest.
experimental-readout: growth

# annotated cases, reported growth shown
{"columns": ["molecule", "experimental-system", "growth"],
 "data": [
  ["Cc1c(F)cc(C(N)=O)cc1NCC(=O)Nc1ccc([N+](=O)[O-])cc1", "K-562 leukemia", "101% (inactive)"],
  ["O=C(CNc1nc(-c2cccc([N+](=O)[O-])c2)cs1)Nc1cccc([N+](=O)[O-])c1", "K-562 leukemia", "8.33% (active)"]
]}

Q: Entry CCn1c(SCC(=O)Nc2cccc(C(=O)/C=C/c3cc(OC)c(OC)c(OC)c3)c2)nc2ccccc2c1=O : reported growth = ?
Ans: 13.4% (inactive)

Q: N#Cc1cnc2ccc(-c3cnc(N)nc3)cc2c1N1CCc2cc(F)c(Cl)cc21 , same question.
Ans: 12% (inactive)

Q: Field entry: O=S(=O)(Nc1cccc2ccccc12)c1ccc(-c2cnc(C3CC3)o2)cc1
Ans: 8.55% (active)

Q: Field entry: CC(C)(C)c1ccc(C(=O)Nc2nc3ccc(O)cc3s2)cc1
Ans: 8.79% (active)

Q: How about this molecule: NC(N)=Nc1ccc(Nc2cccc(Nc3ccc(Cl)c(C(F)(F)F)c3)c2)cn1
Ans: -2.73% (active)

Q: Try O=C(c1ccc(Cl)cc1)C1[C@H](c2ccc(Cl)cc2)[C@@H](c2ccccc2)NC12C(=O)Nc1ccccc12 (some centres undefined) next.
Ans: 33.6% (inactive)

Q: Please answer likewise for Cc1ccc(-n2cc(/C=N/NC(=O)c3nc(N)n[nH]3)c(-c3ccc(S(C)(=O)=O)cc3)n2)cc1
Ans: 52.7% (inactive)
